Reference source: patent US20250206761A1

Target Or Test System: KRAS G12C-BRAF complex (Homo sapiens (Human), UniProt P01116+P62937, G12C)
Sequence (P01116-2 other isoform, or with tags, fused parts or gaps G12C): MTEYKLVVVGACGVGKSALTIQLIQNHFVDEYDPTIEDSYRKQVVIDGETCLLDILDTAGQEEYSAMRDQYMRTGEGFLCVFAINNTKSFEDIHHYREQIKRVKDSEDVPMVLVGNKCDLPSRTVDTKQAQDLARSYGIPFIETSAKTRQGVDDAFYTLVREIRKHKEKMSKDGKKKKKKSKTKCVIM
Sequence (P62937 whole entry): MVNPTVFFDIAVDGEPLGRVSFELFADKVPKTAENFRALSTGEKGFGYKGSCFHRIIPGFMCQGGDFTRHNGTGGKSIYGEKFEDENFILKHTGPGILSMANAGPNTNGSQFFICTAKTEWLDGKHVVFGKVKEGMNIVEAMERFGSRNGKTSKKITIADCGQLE
Assay Details: KRAS-BRAF with CYPA (500 nM) interaction assay (TR-FRET), G12C
Assay type: biochemical
Measured Metric: pIC50
Answers are plain numbers, as −log10 of the molar value.

Compound | Target Or Test System | Measured Metric | Recorded Value
CCn1c(-c2cc(N3CCN(C)CC3)cnc2[C@H](C)OC)c2c3cc(c(F)cc31)-c1csc(n1)C[C@H](NC(=O)[C@H](C(C)C)N1CC[C@@]3(CCN(C(=O)[C@H](F)Cl)C3)C1=O)C(=O)N1CCC[C@H](N1)C(=O)OCC(C)(C)C2 (atropisomer, axis not shown; (M)) [Example 30] | KRAS G12C-BRAF complex (Homo sapiens (Human), UniProt P01116+P62937, G12C) | pIC50 | 7.42
CO[C@@H](C)c1ncc(N2CCN(C)CC2)cc1-c1c2c3cc(c(F)cc3n1CC(F)(F)F)-c1csc(n1)C[C@H](NC(=O)[C@H](C(C)C)N1CC[C@@]3(CCN(C(=O)[C@H](F)Cl)C3)C1=O)C(=O)N1CCC[C@H](N1)C(=O)OCC(C)(C)C2 (atropisomer, axis not shown; (M)) [Example 4] | KRAS G12C-BRAF complex (Homo sapiens (Human), UniProt P01116+P62937, G12C) | pIC50 | 6.91

Now consider a different compound.
(Q) Recall and state the measured pIC50 for CO[C@@H](C)c1ncc(N2CCN(CC(F)(F)F)CC2)cc1-c1c2c3cc(c(F)cc3n1CC(F)(F)F)-c1csc(n1)C[C@H](NC(=O)[C@H](C(C)C)N1CCC3(CN(C(=O)[C@H](F)Cl)C3)C1=O)C(=O)N1CCC[C@H](N1)C(=O)OCC(C)(C)C2 (atropisomer, axis not shown; (M)) [Example 46] .
(A) 6.89

====

System: phosphorylation of ERK, KRAS G12C in NCJ-H358 cells
Assay Details: pERK inhibition assay, KRAS G12C
Assay type: cell-based, human
Settings: Homo sapiens, 4 hours
Measured Metric: IC50 (nM)
One number for each entry, in nM.

Molecule | Measured Metric | Readout Units | Recorded Value
CC(C)[C@@H](C(=O)N[C@H]1Cc2cc(O)cc(c2)-c2ccc3c(C(C)(C)C#N)cn(c3c2)CC(C)(C)COC(=O)[C@@H]2CCCN(N2)C1=O)N1CCCC2(CCN(C(=O)CCl)C2)C1=O (some centres unmarked) [RM351, reference compound] | IC50 | nM | 356

Now consider a different molecule.
(Q) Recall and state the measured IC50 for CCn1c(-c2cc(N3CCN(C)CC3)cnc2[C@H](C)OC)c2c3cc(c(F)cc31)-c1csc(n1)C[C@H](NC(=O)[C@@H](COC1CN(C(=O)[C@H](F)Cl)C1)C(C)C)C(=O)N1CCC[C@H](N1)C(=O)OCC(C)(C)C2 (atropisomer, axis not shown; (M)) .
(A) 10

====

Can you tell me IC50 for the items I'm about to list?
Target Or Test System: KRAS G12C-BRAF complex (Homo sapiens (Human), UniProt P01116+P62937, G12C)
Assay Details: KRAS-BRAF with CYPA (500 nM) interaction assay (TR-FRET), G12C
Assay type: biochemical
One number for each entry, in nM.

Solved cases below.
Compound | Readout Units | IC50
CCn1c(-c2cc(N3CCN(CC(F)(F)F)CC3)cnc2[C@H](C)OC)c2c3cc(c(F)cc31)-c1csc(n1)C[C@H](NC(=O)[C@H](C(C)C)N1CCCC3(CCN(C(=O)[C@H](F)Cl)CC3)C1=O)C(=O)N1CCC[C@H](N1)C(=O)OCC(C)(C)C2 (atropisomer, axis not shown; (M)) | nM | 47
CO[C@@H](C)c1ncc(N2CCOCC2)cc1-c1c2c3cc(c(F)cc3n1CC(F)(F)F)-c1csc(n1)C[C@H](NC(=O)[C@H](C(C)C)N(C)C(=O)[C@H]1CCN(C(=O)[C@H](F)Cl)C1)C(=O)N1CCC[C@H](N1)C(=O)OCC(C)(C)C2 (atropisomer, axis not shown; (M)) | nM | 53

Now consider a different compound.
(Q) Recall and state the measured IC50 for CO[C@@H](C)c1ncc(N2CCN(CC(F)(F)F)CC2)cc1-c1c2c3cc(c(F)cc3n1CC(F)(F)F)-c1csc(n1)C[C@H](NC(=O)[C@H](C(C)C)N1CCC3(CCN(C(=O)[C@H](F)Cl)CC3)C1=O)C(=O)N1CCC[C@H](N1)C(=O)OCC(C)(C)C2 (atropisomer, axis not shown; (M)) .
(A) 79
